Here, each record is paired with measured growth inhibition data.
Assay info: inhibition of 3D7 malaria parasite growth – strain 3D7 (AID 2306);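 further: 0% = DMSO wells and 100% = chloroquine plus artemisinin control wells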
Test context: P. falciparum 3D7 erythrocytic growth, LDH absorbance, 72 h; at 2 µM; hits give high values
Activity calls are given as the source filed them. How the calls were made is not given here.

Q: Requested read-out: growth inhibition. Entry: Cc1ccccc1C1CCN(C2CCC(NC(=O)/C=C/c3ccccc3C(F)(F)F)CC2)CC1 (centres undefined)
Result: 83% (active)

Q: Consider the compound shown here: COc1cccc(C(=O)NC(c2ccccc2OC)c2cc(Cl)c3cccnc3c2O)c1 (centres undefined) What is its recorded growth inhibition?
Result: 91% (active)

Q: // lookup growth inhibition for "O=C(NC1CCN(CC2(c3ccc(Cl)cc3)CCCCC2)CC1)c1ccn[nH]1"
Result: 98% (active)
